Molecular target: TRPML1 (Homo sapiens, UniProt Q9GZU1)
Sequence (Q9GZU1 17-572 limits assumed): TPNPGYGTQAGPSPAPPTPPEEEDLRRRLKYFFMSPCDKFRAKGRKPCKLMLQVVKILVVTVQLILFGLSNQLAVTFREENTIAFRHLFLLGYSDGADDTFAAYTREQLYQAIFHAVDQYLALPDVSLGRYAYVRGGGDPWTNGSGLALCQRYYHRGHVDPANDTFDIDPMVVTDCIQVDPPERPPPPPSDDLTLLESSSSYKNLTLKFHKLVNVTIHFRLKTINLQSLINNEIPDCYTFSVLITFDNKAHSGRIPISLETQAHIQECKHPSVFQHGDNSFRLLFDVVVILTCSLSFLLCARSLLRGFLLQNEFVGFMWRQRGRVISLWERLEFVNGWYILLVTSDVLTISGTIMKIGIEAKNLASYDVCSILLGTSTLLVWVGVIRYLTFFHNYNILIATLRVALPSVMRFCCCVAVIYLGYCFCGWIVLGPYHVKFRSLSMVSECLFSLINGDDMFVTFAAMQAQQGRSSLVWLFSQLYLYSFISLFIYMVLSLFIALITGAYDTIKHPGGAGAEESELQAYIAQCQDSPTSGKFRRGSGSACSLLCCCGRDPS
Experiment: Calcium flux in HEK293 overexpressing TRPML1 plasma membrane variant (FLIPR, Calcium 6 dye)
Conditions: HEK293/TRPML1-PM clone A5 cells; 4-parameter logistic fit; read-out: TRPML1 calcium flux (FLIPR) dose response: EC50
experimental.endpoint: EC50 (nM)

{"molecule": "CN(CC1CCCCO1)c1ccccc1NS(=O)(=O)c1ccc(S(=O)(=O)N(C)C)cc1 (stereo not shown)", "unit.spec": "nM", "EC50": 790}
{"molecule": "CCCN(C)c1ccccc1NS(=O)(=O)c1ccc(S(=O)(=O)N(C)C)cc1", "unit.spec": "nM", "EC50": 2370}
{"molecule": "CN(Cc1ccncc1)c1ccccc1NS(=O)(=O)c1ccc(S(=O)(=O)N(C)C)cc1", "unit.spec": "nM", "EC50": 3690}

A: CN(Cc1cncs1)c1c(Cl)cccc1NS(=O)(=O)c1ccc(S(=O)(=O)N(C)C)cc1
B: Cc1ncsc1CN(C)c1ccccc1NS(=O)(=O)c1ccc(S(=O)(=O)N(C)C)cc1
C: CN(Cc1cscn1)c1c(Cl)cccc1NS(=O)(=O)c1ccc(S(=O)(=O)N(C)C)cc1
Output the entries ranked by EC50 from maximum down to minimum. Sort and list the labels as requested.
B, A, C
(B: 3050 nM, A: 996 nM, C: 453 nM)

---

Biological target: TRPML1 (Homo sapiens, UniProt Q9GZU1)
Test: Calcium flux in HEK293 overexpressing TRPML1 plasma membrane variant (FLIPR, Calcium 6 dye)
Settings: HEK293/TRPML1-PM clone A5 cells; 4-parameter logistic fit; read-out: TRPML1 calcium flux (FLIPR) dose response: EC50
experimental.endpoint: EC50 (nM)

{"molecule": "CN(Cc1cncs1)c1c(F)cccc1NS(=O)(=O)c1ccc(S(=O)(=O)N(C)C)cc1", "EC50 (nM)": 1340}
{"molecule": "CN(CC1(C)COC1)c1ccccc1NS(=O)(=O)c1ccc(S(=O)(=O)N(C)C)cc1", "EC50 (nM)": 1140}
{"molecule": "CN(c1cccc(Cl)c1NS(=O)(=O)c1ccc(S(=O)(=O)N(C)C)cc1)C1CCCCC1", "EC50 (nM)": 5780}
{"molecule": "CN(CC1CCCC1)c1ccccc1NS(=O)(=O)c1ccc(S(=O)(=O)N(C)C)cc1", "EC50 (nM)": 420}

P: CN(c1cc(C(F)(F)F)ccc1NS(=O)(=O)c1ccc(S(=O)(=O)N(C)C)cc1)C1CCCCC1
Q: CN(c1ccccc1NS(=O)(=O)c1ccc(S(=O)(=O)N(C)C)cc1)C1CCOC1(C)C (stereo not shown)
R: Cc1cc(CN(C)c2ccccc2NS(=O)(=O)c2ccc(S(=O)(=O)N(C)C)cc2)cc(C)n1
S: CN(c1c(Cl)cccc1NS(=O)(=O)c1ccc(S(=O)(=O)N(C)C)cc1)C1CCCCC1
Endpoint returns the given molecules ordered by ascending EC50. Sort and list the labels as requested.
S, Q, P, R

I: CN(c1ccccc1NS(=O)(=O)c1ccc(S(=O)(=O)N(C)C)cc1)C1CCOC(C)(C)C1 (stereo not shown)
II: CN(c1c(NS(=O)(=O)c2ccc(S(=O)(=O)N(C)C)cc2)cccc1C(F)(F)F)C1CCCCC1
I would appreciate it if you could say which entry, I or II , has the lower EC50 value. Please indicate the selected item by its label.
II

I: CN(CCc1nccs1)c1ccccc1NS(=O)(=O)c1ccc(S(=O)(=O)N(C)C)cc1
II: CN(Cc1cscn1)c1ccccc1NS(=O)(=O)c1ccc(S(=O)(=O)N(C)C)cc1
Between I and II , which one shows the larger EC50 value? Please indicate the selected item by its label.
II
(II: 2060 nM, I: 1400 nM)
